# Test system: CAKI-1 renal
# protocol_summary: NCI tumour cell line growth inhibition, 48 h
observation_type: TGI

O=C(C[N+]12CN3CN(CN(C3)C1)C2)c1ccc(-c2ccccc2)cc1 : > 100 µM
O=[N+]([O-])c1ccccc1N=Nc1c(O)[nH]c2c(Cl)cccc12 : 26.3 µM

Exam item: Query (molecule): O=S(=O)(c1ccccc1)N1CCCC(c2ccccc2)CC1 (stereo not drawn) ; field requested: TGI
Marked response: > 100 µM

----------
TGI values by entry
# Tested on: 786-0 renal
# protocol_summary: NCI tumour cell line growth inhibition, 48 h
Give the number; µM is assumed, so skip it.

CCc1ccc2c(c1)C(=O)c1c-2n(CCCN)c(=O)c2cc(OC)c(OC)cc12 : 3.11

Then this compound:
Exam item: Any idea what its TGI is? The compound is "CC(C)=CCC[C@@H](C)C1=C(O)C(N[C@H](C)c2ccccc2)=C(C)C(=O)C1=O"
Marked response: 20.7
